The reader will find reported Imax values listed item by item below.
- measured on: Prostaglandin G/H synthase 2 (Mus musculus) (UniProt Q05769)
- Sequence (whole entry): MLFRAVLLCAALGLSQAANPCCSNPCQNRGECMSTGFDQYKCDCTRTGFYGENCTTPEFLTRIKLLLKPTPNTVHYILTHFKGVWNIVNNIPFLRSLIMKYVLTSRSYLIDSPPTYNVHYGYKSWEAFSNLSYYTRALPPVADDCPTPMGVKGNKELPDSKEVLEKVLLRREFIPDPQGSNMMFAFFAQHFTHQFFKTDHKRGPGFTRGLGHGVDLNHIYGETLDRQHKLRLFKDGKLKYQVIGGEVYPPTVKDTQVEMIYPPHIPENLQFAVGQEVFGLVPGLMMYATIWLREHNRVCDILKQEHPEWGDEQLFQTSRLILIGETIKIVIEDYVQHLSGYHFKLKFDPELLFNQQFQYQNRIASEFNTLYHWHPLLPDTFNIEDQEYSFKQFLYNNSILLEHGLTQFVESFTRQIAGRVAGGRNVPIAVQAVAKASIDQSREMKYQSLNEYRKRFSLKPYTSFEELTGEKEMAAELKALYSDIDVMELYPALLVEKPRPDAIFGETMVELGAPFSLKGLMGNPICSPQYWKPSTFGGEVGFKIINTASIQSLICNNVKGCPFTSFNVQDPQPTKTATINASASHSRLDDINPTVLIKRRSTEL
- method summary: Inhibition of mouse COX2-mediated 2-arachidonoylglycerol oxygenation at 10 uM preincubated for 3 mins before 2-arachidonoylglycerol addition measured after 30 seconds relative to control

molecule smiles | Imax
COc1ccc2cc(C(C)(C)C(=O)O)ccc2c1 | 12%
O=C(O)C1(c2ccc(-c3ccccc3)c(F)c2)CC1 | 87%
CC(C)Cc1ccc(C(C)(C)C(=O)O)cc1 | 5%
CC(C)Cc1ccc(C2(C(=O)O)CC2)cc1 | 45%
O=C(O)Cc1cccc(Oc2ccccc2)c1 | 68%
CC(C)(C(=O)O)c1cccc(Oc2ccccc2)c1 | 65%
COc1ccc2cc(C3(C(=O)O)CC3)ccc2c1 | 77%
O=C(c1ccccc1)c1cccc(C2(C(=O)O)CC2)c1 | 75%
